B1: TPR t1 (parent)
chain: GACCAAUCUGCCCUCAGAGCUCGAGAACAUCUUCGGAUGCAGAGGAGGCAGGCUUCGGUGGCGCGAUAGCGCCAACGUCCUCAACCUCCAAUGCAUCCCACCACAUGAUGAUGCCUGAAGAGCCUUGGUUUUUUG

Variants of: B1
Experiment: polymerase ribozyme fitness, log enrichment relative to wild type (log ratio); higher = more active; in vitro selection for triplet polymerase activity
Think of -3 as a floor: if polymerase ribozyme fitness (log ratio) stands on it or above, it is fulfilled; beneath it, not fulfilled.

sequence_variant="G23A G61U" classification="not fulfilled"
sequence_variant="G36A G44A G61U G77U A84U" classification="not fulfilled"
sequence_variant="C56U G63C G110A" classification="not fulfilled"
sequence_variant="C8U C56A U81G G120C" classification=fulfilled
sequence_variant="U9C C40G G69A C101U" classification=fulfilled
sequence_variant="G48A C80A" classification=fulfilled
sequence_variant="G60A G61U U96G" classification=fulfilled
sequence_variant="U38A G39A G61U" classification=fulfilled
sequence_variant="G48U C76G G110A G127A" classification=fulfilled
sequence_variant="U21C A111C" classification=fulfilled
sequence_variant="A29U U81C C124A" classification=fulfilled
sequence_variant="U54G C89U" classification=fulfilled
sequence_variant="A84C U130C" classification=fulfilled
sequence_variant="G61A C85G G93A C101G" classification=fulfilled
sequence_variant="C62A U87C" classification=fulfilled
sequence_variant="C13U G17U G63U U78C" classification="not fulfilled"
sequence_variant="C34A A43U" classification="not fulfilled"
sequence_variant="C13U C20U G61U C114A" classification=fulfilled
sequence_variant="C4A C86G" classification=fulfilled
sequence_variant="C64A U92A C98U G110C C114A U133A" classification="not fulfilled"
sequence_variant="C20U C22A" classification="not fulfilled"
sequence_variant="U38G G135U" classification=fulfilled
sequence_variant="C49U G60U" classification=fulfilled
sequence_variant="C8G G23U A24U A41C G60U C86G C101A G120A" classification="not fulfilled"
sequence_variant="G17U G61A U81G C101G G117C G128U" classification="not fulfilled"
sequence_variant=A68U classification="not fulfilled"
sequence_variant="C22A G60C" classification="not fulfilled"
sequence_variant="C12G A74U C80U" classification=fulfilled
sequence_variant="U55C G69C C76U C89A A121U U125G" classification="not fulfilled"
sequence_variant="A16U G45A G61U C82G" classification=fulfilled
sequence_variant="G93A C99U" classification="not fulfilled"
sequence_variant="G17C G120A" classification="not fulfilled"
sequence_variant="G35A C49A G60U C86U C89A" classification="not fulfilled"
sequence_variant="C31U A46C G113U A119G" classification="not fulfilled"
sequence_variant="C56A G61A G110U" classification="not fulfilled"
sequence_variant="C62U C104U A108C" classification="not fulfilled"
sequence_variant="G25A G93A" classification="not fulfilled"
sequence_variant="G45C G61U C86U U87G G93C" classification=fulfilled
sequence_variant="C11G C124A" classification=fulfilled
sequence_variant="G57U G135U" classification=fulfilled
sequence_variant="U54C U59C G61U U125A" classification="not fulfilled"
sequence_variant="C12G G113U" classification="not fulfilled"
sequence_variant="C34A G61U U112G C123A" classification="not fulfilled"
sequence_variant="C70G C99A" classification="not fulfilled"
sequence_variant="G52A C86A A111C" classification="not fulfilled"
sequence_variant="C12U U87A" classification=fulfilled
sequence_variant="A5G G45A G69U C104A" classification=fulfilled
sequence_variant="C13U G71U U78G U133G" classification=fulfilled
sequence_variant="C12U G36U G47U U106G" classification="not fulfilled"
sequence_variant="U38A A50U C73G A121U" classification=fulfilled
sequence_variant="G25U G39U G44U C73A" classification="not fulfilled"
sequence_variant="A16U G58U C123A" classification=fulfilled
sequence_variant="A37G A46G A83C" classification=fulfilled
sequence_variant="C28A G39U A43G C56U G61U C64G G120C" classification="not fulfilled"
sequence_variant="C12U C72U G128U" classification=fulfilled
sequence_variant="C12G G69U C115A" classification=fulfilled
sequence_variant="C12A G128C" classification=fulfilled
sequence_variant="C13A A18G" classification="not fulfilled"
sequence_variant="A50G U116A" classification="not fulfilled"
sequence_variant="A46G G77C C97U C124G" classification=fulfilled
sequence_variant="C4A C88U G120U" classification=fulfilled
sequence_variant="C15A C104U G110A" classification=fulfilled
sequence_variant="C11G C40G C70G C89U" classification="not fulfilled"
sequence_variant="C79A U81C C89U G93U G120C C124U" classification="not fulfilled"
sequence_variant="A50C A100C C104U G120C G127U" classification=fulfilled
sequence_variant="G52U A68G G77C" classification="not fulfilled"
sequence_variant="A66G U126G" classification=fulfilled
sequence_variant="A18U G25C G57C C89G U92G C115U" classification="not fulfilled"
sequence_variant="G60A C94A" classification=fulfilled
sequence_variant="U54C G61A" classification=fulfilled
sequence_variant="U32C A41C" classification=fulfilled
sequence_variant="C12U C56G" classification=fulfilled
sequence_variant="G48C A50G C102A" classification="not fulfilled"
sequence_variant="G60U C82U G110U" classification=fulfilled
sequence_variant="C15U G52A U59A A118U" classification=fulfilled
sequence_variant="C49A A91U A95G A100C" classification="not fulfilled"
sequence_variant="C13U G113A" classification=fulfilled
sequence_variant="C40G G60U C104A" classification=fulfilled
sequence_variant="U7C G61U" classification=fulfilled
sequence_variant="G39U C123G U126C" classification=fulfilled
sequence_variant="A18U A26G C40G A43U G69A C97A U112A" classification="not fulfilled"
sequence_variant="G60A C88U G122A" classification=fulfilled
sequence_variant="U55C C62G" classification=fulfilled
sequence_variant="U59A A75U C86A C115G U116A G117A" classification="not fulfilled"
sequence_variant="U54G C56G C80G A84G G117U" classification="not fulfilled"
sequence_variant="G71A C101A" classification=fulfilled
